System Tested: T1, interleukin 18 binding protein (IL-18BP) (UniProt O95998 31-194); also: unit not given here
T1 sequence (looked up): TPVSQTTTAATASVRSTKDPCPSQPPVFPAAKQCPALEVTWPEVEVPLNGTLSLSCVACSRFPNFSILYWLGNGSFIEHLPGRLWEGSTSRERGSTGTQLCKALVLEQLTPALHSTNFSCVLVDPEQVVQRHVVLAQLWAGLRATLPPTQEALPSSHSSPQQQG
Assay Method Text: cell-based or functional assay
Property Label: HEK-Blue activity, +100 nM BP, DF-100,000

* IL-18 variant L9V, K53H, S55M (ligand) YFGKLESKVSVIRNLNDQVLFIDQGNRPLFEDMTDSDMRDNAPRTIFIISMYHDMQPRGMAVTISVKSEKISTLSSENKIISFKEMNPPDNIKDTKSDIIFFQRSVPGHDNKMQFESSSYEGYFLASEKERDLFKLILKKEDELGDRSIMFTVQNED | 0.1
* IL-18 variant S36F, N41E, K53W (ligand) YFGKLESKLSVIRNLNDQVLFIDQGNRPLFEDMTDFDMRDEAPRTIFIISMYWDSQPRGMAVTISVKSEKISTLSSENKIISFKEMNPPDNIKDTKSDIIFFQRSVPGHDNKMQFESSSYEGYFLASEKERDLFKLILKKEDELGDRSIMFTVQNED | 0.1
* IL-18 variant S36E, D37E, D40V, N41S, K53Y, S55V, H109Y (ligand) YFGKLESKLSVIRNLNDQVLFIDQGNRPLFEDMTDEEMRVSAPRTIFIISMYYDVQPRGMAVTISVKSEKISTLSSENKIISFKEMNPPDNIKDTKSDIIFFQRSVPGYDNKMQFESSSYEGYFLASEKERDLFKLILKKEDELGDRSIMFTVQNED | 0.1
